B1: VH:VL chains; a variant is named by its letters at X, in order (parent)
chain 1: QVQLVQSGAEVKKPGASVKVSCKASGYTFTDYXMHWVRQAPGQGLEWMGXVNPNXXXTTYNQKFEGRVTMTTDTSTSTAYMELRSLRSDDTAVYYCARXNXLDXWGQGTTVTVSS
chain 2: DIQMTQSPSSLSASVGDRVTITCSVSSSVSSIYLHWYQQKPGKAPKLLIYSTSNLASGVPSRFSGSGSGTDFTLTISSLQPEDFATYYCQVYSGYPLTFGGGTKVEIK

# Variants of: B1
# protocolDescription: yeast display scFab, FACS + sequencing
measure: non-specific binding call

INSERT INTO results (change, measure, assayresult) VALUES
  ('DGERDYSD', 'non-specific binding call', 'binds'),
  ('DRAETDVY', 'non-specific binding call', 'no binding'),
  ('YRARGALV', 'non-specific binding call', 'binds'),
  ('VAGRSDLV chain 1 R67H', 'non-specific binding call', 'no binding');
